Experiment: yeast display, Sf9 membrane polyspecificity reagent, FACS + sequencing; frameworks hold sequencing errors
TEST_READOUT: polyreactivity (PSR sort gate)

QVQLVESGGGLVQAGGSLRLSCAASGRTFPYYAMGWYRQAPGKERELVAVITSGASTYYADSVKGRFTISRDNAKNTVYLQMNSLKPEDTAVYYCNARYSWKYDYWGQGTQVTVSS = high polyreactivity
QVQLVESGGGLVQAGGSLRLSCAASGYTFSRYAMGLYRQAPGKERELVAAISHSAGRTYYADSVKGRFTISRDNAKNTVYLKMNSLKPEDTAVYYCATVLYSVPRYNYWGQGSQVTVSS = high polyreactivity

---

Test: yeast display, Sf9 membrane polyspecificity reagent, FACS + sequencing; frameworks hold sequencing errors
TEST_READOUT: polyreactivity (PSR sort gate)

QVQHVESGGRLVQAGGSLRLSCAASGSIFGRYVMGWYRQAPGKESELVAAISGSGGSTNYADSVKGRFTISRDNAKNTVYLQMNSLKPEDTAVYYCATLRWFWYTRSTRIGDYWGQGTQVTVSS = high polyreactivity
QVQLVESGGGLVQAGGSLRLSCAASGSIFRSYVMGWSRQAPGKERELVAAISRRGVRTFYADSVKGRFTISRDNAKNTVYLQMNSLKPEDTAVYYCAAQPYKGTGYDYWGQGTQVTVSS = high polyreactivity
QVQLVESGGGLVQAGGSLRLSCAASGSTFVYYAMGWYRQAPGKEREFVAAISTNGGSTYYADSVKGRFTISRDNAKNTVYLQMNSLKPEDTAVYYCAARWYWGQGTQVTVSS = high polyreactivity
QVQHVESGGGLVQAGGSLRLSCAASGYTFYIYAMGWYRQAHGKERELVATISSSGGGTYYADSVKGRFTISRDNAKNTVYLQMNSLTPEDTAVYYCNADGWYWQAQGYDYWGQGTQVTVSS = low polyreactivity
QVQVVESGGALVQAGGSLRLSCAASGSTFYNYAMGWYRPAPGKERELVAAISSGGGITYYADSVKGRFTISRDNAKNNVYVQMNSLKPEDTAFYYCNARRKYLGYNYWGQGTQVTVSS = high polyreactivity

Which polyreactivity (PSR sort gate) value is on record for `QVQLLESGGGLVQAGGSLRLSCASSGRTFVRYGMGWSRQAPGKERELVAAITGSGSRTYYADSVKGRFTISRDNAKNTVYLQMNSLIPKDTAVYYCAGRGQGGAGDPRYPVYYWGQGTQVTVSS` ?
high polyreactivity

Which polyreactivity (PSR sort gate) value is on record for `QVQLVESGGCLVQAGGSLRLSCAASGRIFVTYAMGWYRQAPGNERELVAAITSRGGRTYYADSVKGRFTISRDYAKNTVYLQMNSLKPEDTAVYYCAASPGPGARYYYWCQGTQVTVSS` ?
high polyreactivity

Which polyreactivity (PSR sort gate) value is on record for `QVQLVESGGGLVQAGGSLRLSCAASGRIFRSNAMGWYRQAPRKERELVAVITTAGSTNYADSVKGRFTISRDNAKNTVYLQMNSLKQEDTAVYYCATENGTRKRRYDYWGQGTQVTVSS` ?
low polyreactivity

---

Assay: yeast display, Sf9 membrane polyspecificity reagent, FACS + sequencing; frameworks hold sequencing errors
TEST_READOUT: polyreactivity (PSR sort gate)

QVQLVESGGGLVQAGGSLRLSCAASGITFGWNAMGWYRQAPGKEWELVAAITEDGYSTYYADSVKGRFTISRDNEKNTVYLQMNSLKPEDTAVYYCAAEYYDVYTYVQYDSWGQGTQVTVSS = high polyreactivity
QVQLVESGGGLVQAGGSLRLSCAASGSIFRNYAMGWYRQAPGKERELVSAITRGGGSTYYADSVKARFTISRDNAKNTVYLQMNSLKPEETAVYYCAAVRVFQYKYDRFNYWGQGTQVTVSS = high polyreactivity

---

Test: yeast display, Sf9 membrane polyspecificity reagent, FACS + sequencing; frameworks hold sequencing errors
TEST_READOUT: polyreactivity (PSR sort gate)

Illustrative cases are given below, each with its answer.
QVQLVESGGGLVQAGGSLRLSCAASGRTISRYAMGWYRQAPGKERELVATITSGGSTNYADSVKGRFTISRDNAKNTLYLQMNSLKPEDTAVYYCNAQSWYIVPYDYWGQGTQVTVSS = low polyreactivity
QVQLVESGGGLFQAGGSLRLSCAASGRILNINAMGWYRQAPGKERELVAAITWRGGRTFYADSVKGRFTISRDNAKNTVYLQMNSLKPEDTAVYYCAASSNTWYPTGYYWGQGTQVTVSS = high polyreactivity
QVQHVESGGGLVQAGGSLRLSCAASGSTFVVYAMGWYRQAPGKERELVAAINWSGGSTYYADSVKGRFTISRDNAKNTVYLQMNSLKPEDTAVYYCSAYGVTYRGDYDYWGQGTQVTVSS = low polyreactivity
QVQLVESGGGLVQAGGSLRLSCAASGFTFFLNAMVWSRPAPGKERELVAAITYSGDSTYYADSVKGRFTISRDNAKNTVYLQMNSLKPEDTAVYYCAAASKFGLYEYEYWGQGTQVTVSS = low polyreactivity

Which polyreactivity (PSR sort gate) value is on record for `QVQLVESGGGLVQAGGSLRLSCAASGFTFSYYDMGWYRQAPGKERELVAAISSSASRTYYADSVKGRFTISRDNAKNTVYLQMNSLKPEDTAVYYCAARYSESRTGHLDYWGQGTQVTVSS` ?
high polyreactivity

---

Experiment: yeast display, Sf9 membrane polyspecificity reagent, FACS + sequencing; frameworks hold sequencing errors
TEST_READOUT: polyreactivity (PSR sort gate)

Illustrative cases are given below, each with its answer.
QVQLVESGGGLVQSGGSLRLSCAPSGRIFAGYTMGCYRQAPGKERELVAAISWSGGRTYYADSVKGRFTISRDNAKNTVYLQMNSLKPEDTAVYYCAVGFRTLHGDYGYWGQGTQVTVSS = high polyreactivity
QVQLVESGGGLVQAGGSLRLSCAASGSIFAYYTMGWYRQAPGKEREFVAAISYSGGSTYYADSVKGRFTISRDNAKNTVYLQMNSLKPEDTAVYYCFPGKTRLYGYWGQGTQVTVSS = high polyreactivity
HVQLVESGGGLVQAGGSLRLSCAASGSIFDDYAMGWYRQAPGKERELVAAISSSGTSTYYADSVKGRFTISRDNAKNTVYLQMNSLKPEDTAVYYCAARSAILKSGYLMDYWGQGTQVTVSS = low polyreactivity
QVHLVESGGGLVQAGGSLRLSCAASGYTSKTYAMGWYRQAPGKEMELVAAINWGSGSTYYADSVKGRFTISRDNAKNTVYLQMNSLKPEDTAVYYCAAEGYYNWYVGYGYWGQGTQVTVSS = high polyreactivity
QVQLVESGGGLVQAGGSLRLSCAASGSIFTFYTMGWYRQAPGKERELVAAINWSGSRTYYADSVKGRFTISRDNAKNTVYLQMNSLIQEDTAVYYCNVRCYYKRRYGWYSYRYGYWGQGTQVTVSS = high polyreactivity

Which polyreactivity (PSR sort gate) value is on record for `QVQLVESGGGLFQAGRSLPLSCAASGIIFTQYPMGWYRQAPGKERELVAAISGSGGRTYYADSVKGRFSISRDNEKNTVYLQMKILKPEDTAVYYCAARYARYGNDYWGQCTQVTVSS` ?
high polyreactivity

Which polyreactivity (PSR sort gate) value is on record for `QVQLVESGGGLVQAGGSLRLSCAASGSTSQRYSMGWYRQAPAKEREVVAGITTSGGRTYYADSVKGRFTISRDNAKNTVYLQMNSLKPEDTAVYYCAARTQIWKYRGYYSWGQGTQVTVSS` ?
high polyreactivity

Which polyreactivity (PSR sort gate) value is on record for `QVQLVESGGGLVQAGGSLRLSCAASGFIYWYYAMGWYRQAPGKERELVAAISGTGGTTYYADSVKGRFTISRDNAKNTVYLQMKSLKPEDTAVYYCNDRYDSRRTAIGYDYWGQGTQVTGSS` ?
low polyreactivity

Which polyreactivity (PSR sort gate) value is on record for `QVQLVESGGGLVQAGGSLRLSCAASGRIFRQNAMGWYRQAPGKERELVAAIDWNGTSTYADSVKGRFTISRDNAKNTVYLQMNSLKPEDTAVYYCNASESKPTFEYDYWGQGTQVTVSS` ?
low polyreactivity

Which polyreactivity (PSR sort gate) value is on record for `QVQLVESGGGLVQAGGSLRLSCAASGRTYGHDTMGWYRQAPGKERELVARISRTGSTKYADSVKGRFTISRDNAKNTVYLQMNCLTPEDTAVYYCARVQAGGYGERVYAYHFDYWGQGTQVTVSS` ?
high polyreactivity

Which polyreactivity (PSR sort gate) value is on record for `QVQLVESGGCLVQAGGSLRLSCAASGSIFSWYGMSWYRQAPGKERELVAAITWGGGSTYYADSVKGRFTISRDNAKNSVYLQMNSLKPEDTAVYYCEVDYWGQCTQVTVSS` ?
low polyreactivity

---

Test: yeast display, Sf9 membrane polyspecificity reagent, FACS + sequencing; frameworks hold sequencing errors
TEST_READOUT: polyreactivity (PSR sort gate)

QVQLLESGGGLVQAGGSLRLSCAASRSTFPGYAMGWYRQAPGKETELVAAITWSGVTTYYADSVKGRFTISRDNAKYTVYLQMNSLKPEDTAVYYCATGTLYSDGAIYGYWGQGTQVTVSS = low polyreactivity
QVQLVESGGGLVQAGGSLRLSCAASGSTFGYNAMGWYRQAPGKERELVARITSSGGSTYYADSVKGRFTISRDNAKNTVYLQMNSLKPEDTAVYYCAAGYPYRAVYRYYYWGQGTQVTVSS = high polyreactivity
QDQLVESGGGLVQGGGSLRLSCAASGRIFSPYAMGWYRQAPGKEREVVAAITSASSTYYADSVKGRFTISRDNAKNTVYLQMNSLKPEDTAVNYCAASYWRYGSAFDYWGHGTQVTVSS = high polyreactivity
QVQLVESGGGLVQAGGSLRLSCAASGIILPYYAMGWYRQAPGKERELGASISYDGTSTYYADSVKGRFTISRDNAKNTVYLQMNSLKPEDTAVYYCAAVQWWPRASYSMDYWGQGTQVTASS = low polyreactivity

We next turn to a different sequence, shown below.
Which polyreactivity (PSR sort gate) value is on record for `QVQHVESGGGLVQAGGSLRLSCAASGFTFYGNALGWYRQAPGKERELVAAITSGGSTYYADSVKGRFTISRDNAKNTVYLQMNSLKPDDTAVYYCAADEVLYGYEYWGQGTQVTVSS` ?
low polyreactivity

From: the nanobody polyreactivity screen of Harvey et al. (2022)
